experiment: qHTS of pediatric cancer cell lines to identify multiple opportunities for drug repurposing: Confirmatory screen for BT-12 cells (AID 1347112); conditions: BT-12 rhabdoid tumor cells, viability; series mostly up to 45.9 µM;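 also: viability read after 48 h of compound exposure; nearly all actives have a fitted effect of over 55% in size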
Results filed as inconclusive are left out. The source made the active and inactive calls. Calls follow the shape of the dose curve; as a rule, active = well fitted cell-killing curve with a large enough effect; inconclusive = small, poorly fitted or top-dose-only effect; inactive = flat fitted curve, though single readings scatter.
Answer with one of the outcomes given here: active, inactive

Reference set (6 entries):
Req: What was the test verdict on CN1CCN(Cc2ccc(NC(=O)Nc3ccc(Oc4cc(NC(=O)C5CC5)ncn4)cc3)cc2C(F)(F)F)CC1 ?
Resp: active

Req: Now try CC(NCc1ccc2c(c1)nc(NC(=O)c1ccc(-c3cn[nH]c3)s1)n2CC(C)(C)O)C(C)(C)C (centres undefined) .
Resp: active

Req: Now try CCCCc1nc2cc(C=CC(=O)NO)ccc2n1CCN(CC)CC .
Resp: active

Req: Now try CC(C)(C)c1cnc(CSc2cnc(NC(=O)C3CCNCC3)s2)o1 .
Resp: active

Req: Now try CC(=O)OCC(=O)[C@@]1(O)[C@H](C)C[C@H]2[C@@H]3C=C(C)C4=Cc5c(cnn5-c5ccccc5)C[C@]4(C)[C@@H]3[C@@H](O)C[C@@]21C .
Resp: active

Req: Now try C#Cc1cccc(Nc2ncnc3cc(OC)c(OCCCCCCC(=O)NO)cc23)c1 .
Resp: active

Further cases:
Req: What was the test verdict on CNC(=O)CN1CCC(Oc2cc3c(Nc4cccc(Cl)c4F)ncnc3cc2OC)CC1 ?
Resp: inactive

Req: Now try CC1(C)O[C@@H]2C[C@@H]3[C@H]4C[C@@H](F)C5=CC(=O)C=C[C@]5(C)[C@@]4(F)[C@@H](O)C[C@]3(C)[C@]2(C(=O)CO)O1 .
Resp: active

Req: Now try CCN1CCN(Cc2ccc(-c3cc4c(N[C@H](C)c5ccccc5)ncnc4[nH]3)cc2)CC1 .
Resp: active

Req: Now try CC=CC1=C(C(=O)O)N2C(=O)[C@H](NC(=O)[C@H](N)c3ccc(O)cc3)[C@@H]2SC1 .
Resp: inactive

Req: Now try COc1cc2c(Oc3ccc(NC(=O)C4(C(=O)Nc5ccc(F)cc5)CC4)cc3F)ccnc2cc1OCCCN1CCOCC1 .
Resp: active

###

Potency for assorted compounds
assay: Identifying Small Molecule Inhibitors of Pancreatic Cancer Stem Cells (Panc1, Adherent) (AID 1259362); details: viability; series mostly up to 46.1 µM; also: potency is read from the fitted curve at half-maximal effect
Records with an inconclusive call do not appear. Activity calls are given as the source filed them. The call rests on the fitted dose curve; in most records, active means well fitted cell-killing curve with a large enough effect; inconclusive means small, poorly fitted or top-dose-only effect, or effect the other way, or another doubt; inactive means no such curve, though single readings can be large or run the other way.

Req: # Potency lookup, item CC1(C)OC2=C(C(=O)c3ccccc3C2=O)[C@H](NCc2ccccc2)[C@H]1O
Resp: 3.32 µM (active)

Further cases:
Req: # Potency lookup, item COC(=O)[C@]12CCC(C)(C)C[C@@H]1[C@@H]1C(=O)C=C3[C@@]4(C)C=C(C#N)C(=O)C(C)(C)[C@@H]4CC[C@@]3(C)[C@]1(C)CC2
Resp: 2.96 µM (active)

###

assay: Quantitative High-Throughput drug screen in 47 multiple myeloma cell lines against the NCATS MIPE library collection: KHM11_PLB cell viability assay (AID 1918962); conditions: KHM11 myeloma cell viability, CellTiter-Glo ATP luminescence, 48 h; series mostly up to 45.8 µM; also: potency is read from the fitted curve at half-maximal effect; nearly all actives have a fitted effect of over 35% in size
Inconclusive results are not listed. Calls of active or inactive are those of the source. Calls come from the whole dose curve; as a rule, active = well fitted cell-killing curve with a large enough effect; inconclusive = small, poorly fitted or top-dose-only effect, or effect the other way; inactive = no such curve, though single readings can be large or run the other way.
Answer with one of the outcomes given here: 1 (yes) for active, 0 (no) for inactive

Req: What was the test verdict on Nc1ccccc1NC(=O)c1ccc(CNc2nccc(-c3cccnc3)n2)cc1 ?
Resp: 1 (yes)

Req: Now try Cc1[nH]nc2ccc(-c3cncc(OC[C@@H](N)Cc4ccccc4)c3)cc12 .
Resp: 1 (yes)

Req: Now try O=C(C=Cc1cccnc1)NCCCCC1CCN(C(=O)c2ccccc2)CC1 .
Resp: 1 (yes)

Req: Now try COC(=O)[C@]12CCC(C)(C)C[C@@H]1[C@@H]1C(=O)C=C3[C@@]4(C)C=C(C#N)C(=O)C(C)(C)[C@@H]4CC[C@@]3(C)[C@]1(C)CC2 .
Resp: 1 (yes)

Req: Now try CC(C)(C)c1cnc(CSc2cnc(NC(=O)C3CCNCC3)s2)o1 .
Resp: 1 (yes)

Further cases:
Req: What was the test verdict on CC(C)[C@H](C(=O)Nc1ccc(C(=O)NO)cc1)c1ccccc1 ?
Resp: 1 (yes)

Req: Now try CN1CCN(c2cc(C(=O)Nc3ccc4c(c3)-c3c(c(C(N)=O)nn3-c3ccc(F)cc3)CC4)c(Cl)cn2)CC1 .
Resp: 1 (yes)

Req: Now try COc1ccc2c(c1)CC[C@@H](CN(C)CC(=O)O)[C@H]2c1ccccc1 .
Resp: 1 (yes)

Req: Now try COc1cc(OC2CCN(C)CC2)ccc1Nc1ncc2c(n1)n(C1CCCC1)c(=O)n2C .
Resp: 1 (yes)

Req: Now try CCn1cc(-c2ccnc3[nH]c(-c4cccc(CN(C)C)c4)cc23)c(-c2ccc(NC(=O)N(C)C)cc2)n1 .
Resp: 1 (yes)
